Reference for the values: patent US20250270172A1

# target: 5-HT2B (Homo sapiens (Human), UniProt P41595)
# Sequence (P41595 whole entry): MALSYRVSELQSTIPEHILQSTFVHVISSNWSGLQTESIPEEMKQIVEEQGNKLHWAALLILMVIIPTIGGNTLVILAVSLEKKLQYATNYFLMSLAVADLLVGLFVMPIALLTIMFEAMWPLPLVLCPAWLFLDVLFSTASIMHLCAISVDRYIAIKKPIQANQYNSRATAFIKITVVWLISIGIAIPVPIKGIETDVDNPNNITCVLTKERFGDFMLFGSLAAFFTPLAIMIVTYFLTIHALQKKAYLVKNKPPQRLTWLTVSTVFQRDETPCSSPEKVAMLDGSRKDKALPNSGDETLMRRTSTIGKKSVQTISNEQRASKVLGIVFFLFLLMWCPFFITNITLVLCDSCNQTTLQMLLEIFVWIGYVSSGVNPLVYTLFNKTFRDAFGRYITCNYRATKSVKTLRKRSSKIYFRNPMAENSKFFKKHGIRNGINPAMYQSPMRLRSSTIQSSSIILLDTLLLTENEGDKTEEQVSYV
# method-summary: HTRF IP-One antagonist assay, 5-HT2B;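 further: clonal HEK293 line with low 5-HT2B expression (estimated 150-200 fmol/mg by radioligand binding), IP-One HTRF readout, 10-point curves from 10 µM in 5-fold steps, triplicate points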
# measurement-parameters: HEK293 cells stably expressing receptor, inositol phosphate accumulation, 80 nM 5-HT in Assay Buffer
Quick list: pIC50 per entry.
# pIC50: negative log10 of molar concentration; output just the value

Previously resolved entries follow.
Cc1ncnc(C)c1-c1cc(NC(=O)[C@@H]2C[C@H]2F)ccc1O[C@@H]1CCCNC1	5.53
Cc1ncc(CC(=O)Nc2ccc(OCCN3CCCC3)c(-c3c(C)ncnc3C)c2)s1	4.00
Cc1ncnc(C)c1-c1cc(NC(=O)C2(F)CC2)ccc1OC[C@H]1CCCCN1	4.00
Cc1ncnc(C)c1-c1cc(NC(=O)c2ccnn2C)ccc1OCCN1CCC1	4.00
COCCNCCOc1ccc(NC(=O)C2CC2)cc1-c1c(C)ncnc1C	4.00

For the molecule COCCNCCOc1ccc(NC(=O)C2(F)CC2)cc1-c1c(C)ncnc1C , give its measured pIC50 value. 4.00

Find the measured pIC50 of Cc1ncnc(C)c1-c1cc(NC(=O)c2ccc(F)cc2)ccc1OCCN1CCCC1 and report it. 5.57

# return recorded pIC50 for entry Cc1ncnc(C)c1-c1cc(NC(=O)C2(F)CCC2)ccc1OC[C@H]1CCCCN1 4.00
